- METHOD NOTES: human hepatoma cell viability loss – ATP luminescence, cytotoxicity control for P. falciparum antimalarial project, primary screen (AID 2303);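 further: 0% = DMSO wells and 100% = digitonin-killed cells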
- TEST PARAMETERS: HepG2 viability, 24-48 h, at 10 µM, stronger effect = higher value
OBSERVATION TYPE: inhibition (%)
# output: bare number, implied unit %

Past entries and their recorded results:
COMPOUND	UNITS LABEL	NUMBER
Cn1cc(CN2CCCC(COC(c3ccc(F)cc3)c3ccc(F)cc3)C2)cn1 (stereo not drawn)	%	15
Nc1cccc(CNCc2cccc(-c3ccc(-c4nc5ccc(C(F)(F)F)cc5[nH]4)cc3)c2)c1	%	6
Nc1c(Cl)cc(C(O)CNCCCCCCOCCC=C2CCOCC2)cc1Cl (stereo not drawn)	%	7

# inhibition of `Cc1nnsc1C(=O)Nc1cccc(-c2csc(-c3nc4ccccc4[nH]3)c2)c1` = 51

# inhibition of `CCN1CCC(NCc2ccc(-c3ccc(Cl)s3)cc2)CC1` = 42

# inhibition of `Cc1cc(NC(=O)Nc2ccc(C(C)(C)C)cc2)c2ccccc2n1` = -3

# inhibition of `Cc1cc2c(NC(=O)NC3CCN(CCc4ccccc4Cl)CC3)cccc2cn1` = 13

# inhibition of `COc1cc2c(cc1OC)CN(CCc1ccc(NC(=O)c3cc4cc(Cl)ccc4[nH]3)cc1)CC2` = 3

# inhibition of O=C(NCC1CCN(Cc2ccc3c(c2)OCCO3)C1)c1cc(-c2ccccc2F)cs1 (stereo not drawn) = 18

# inhibition of CN1CCCC1CCNC(=O)[C@H](CC1CCCCC1)NC(=O)c1ccc(O)c(-c2ccc(Cl)c(Cl)c2)c1 (stereo partly drawn) = 0

# inhibition of `Clc1ccccc1/C=C/c1cncnc1Nc1ccc2nc(Cc3ccccc3)[nH]c2c1` = 4

# inhibition of `Cc1nc(-c2ccc(-c3ccc(C(=O)Nc4ccc(-n5ccnc5)c(N5CCN(C)CC5)c4)cc3)c(C)c2)no1` = 34

# inhibition of `CCCCCCCN(Cc1ccc(OC(C)(C)C(=O)OCC)cc1)C(=O)Nc1ccccc1OCC` = -5

# inhibition of `O=C(/C=C/c1ccc(Cl)c(Cl)c1)NCCCCCN1CCN(C(=O)Nc2cccc(F)c2)CC1` = 12

# inhibition of `COc1ccc2nc(-c3ccccc3)cc(NN=Cc3ccc([N+](=O)[O-])cc3)c2c1` = 89

# inhibition of `Cc1[nH]c(C)c(-c2ccc(-c3ccccc3Cl)nc2)c(=O)c1Cl` = -1

# inhibition of `Cc1ccc(-n2c(=O)c3cccnc3n2CC(=O)Nc2cccc(C)c2C)cc1` = 9

# inhibition of `Cc1cc2nc(-c3cc(-c4cccc(NS(C)(=O)=O)c4)cnc3N)[nH]c2cc1C` = 43

# inhibition of NC1CCN(Cc2ccc(-c3cccc(-c4nc5ccccc5[nH]4)c3)cc2)C1 (stereo not drawn) = 19

# inhibition of `NC(N)=NC(=O)Nc1cc(Cl)c(Cl)c(Br)c1` = 16

# inhibition of `CCOc1cc(Cc2cnc(N)nc2N)cc(OCC)c1OCCCCC(=O)OC` = -12

# inhibition of `COc1cc(NC(=O)Nc2cc(C)nc3ccccc23)cc(OC)c1` = 5

# inhibition of `COc1cc2c(cc1C(F)(F)F)N(C(=O)Nc1cc(OC(F)(F)F)cc(-c3cccnc3)c1)CC2` = 55

# inhibition of `Cc1[nH]nc2ccc(-c3cc(OC[C@@H](N)Cc4ccccc4)cnc3-c3ccccc3OCc3cccc(F)c3)cc12` = 55

# inhibition of COc1ccc(CN2CCCC(C(=O)c3ccc(C(F)(F)F)cc3)C2)c(O)c1 (stereo not drawn) = -2

# inhibition of `CCC[C@@H]([C@@H](CC1CCCCC1)C(=O)N[C@@H](CCOC(=O)NCC)C(=O)Nc1nccs1)N(O)C=O` = -13

# inhibition of `O=c1cc(NCCCNCc2cccc(C(F)(F)F)c2Cl)[nH]c2ccccc12` = 0

# inhibition of `O=C(NCCCCN1CC=C(c2ccc3c(c2OCc2ccccc2)CCCC3)CC1)c1ccc(-c2ccc(C(F)(F)F)cc2)cc1` = 19

# inhibition of `Cc1cc(N[C@@H](Cc2ccccc2)C(=O)NCc2cccc(F)c2)nc(NCCc2cccnc2)n1` = 18

* * *

# reported growth inhibition; entries follow
- METHOD NOTES: inhibition of 3D7 malaria parasite growth – strain 3D7 (AID 2306);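 further: 0% = DMSO wells and 100% = chloroquine plus artemisinin control wells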
- TEST PARAMETERS: P. falciparum 3D7 erythrocytic growth, LDH absorbance, 72 h; at 2 µM; stronger effect = higher value
Activity calls are given as the source filed them. The rule behind the calls is not given here.

Past entries and their recorded results:
COMPOUND	growth inhibition
Cc1cccc2[nH]c(-c3ccc(-c4ccc(CNCc5ccc(CN)cc5)cc4)cc3)nc12	100% (active)
O=C(/C=C/c1ccc(Cl)c(Cl)c1)NCCCCCCN1CCCN(C(=O)Nc2ccc(F)c(F)c2)CC1	89% (active)
CC(C)Cc1nc2nc(N)nc(N)c2cc1C(C)C	96% (active)
O=C(CC(c1ccccc1)c1ccccc1O)N1CCOCC1 (centres undefined)	84% (active)
O=[N+]([O-])c1ccc(Nc2nc(NN=Cc3ccc(-c4ccc([N+](=O)[O-])cc4)o3)nc(Nc3ccccc3)n2)cc1	101% (active)
CCNc1cc(C(=O)N[C@@H](Cc2ccccc2)[C@H](O)CNC23CCC(CC2)C3)cc(N2CCCCS2(=O)=O)c1	97% (active)

# growth inhibition of `c1ccc2ncc(CNCCCCCCCCNCc3cnc4ccccc4c3)cc2c1` = 88% (active)

# growth inhibition of `COc1cccc(CNC(=O)c2ccnc(-c3cccc(CN(C)C4CCN(C)CC4)c3)c2)c1` = 100% (active)

# growth inhibition of `Oc1ccc(CCNc2nc(N/N=C/c3ccc(Cl)cc3)nc(N3CCNCC3)n2)cc1` = 100% (active)

* * *

- TEST SYSTEM: L-lactate dehydrogenase (Plasmodium falciparum (isolate CDC / Honduras)) (UniProt Q27743)
- Sequence (Q27743 whole entry, looked up): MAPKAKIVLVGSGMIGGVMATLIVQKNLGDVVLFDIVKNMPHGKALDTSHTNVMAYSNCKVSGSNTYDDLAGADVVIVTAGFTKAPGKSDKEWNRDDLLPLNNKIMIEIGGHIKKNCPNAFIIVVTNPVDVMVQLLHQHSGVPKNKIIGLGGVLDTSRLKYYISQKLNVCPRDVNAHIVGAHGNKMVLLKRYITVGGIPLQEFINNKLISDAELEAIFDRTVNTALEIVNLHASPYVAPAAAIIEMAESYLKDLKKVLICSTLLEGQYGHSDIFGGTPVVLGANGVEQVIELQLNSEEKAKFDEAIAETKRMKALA
- METHOD NOTES: PfLDH activity inhibition – cell lysate, 3D7 strain, counter-screen for P. falciparum growth inhibition project (AID 2304);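 further: 0% = vehicle and 100% = reference inhibitor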
- TEST PARAMETERS: P. falciparum 3D7 crude extract, LDH APAD/NBT absorbance; at 2 µM; stronger effect = higher value
# reported inhibition; entries follow
# output: bare number, implied unit %

Past entries and their recorded results:
COMPOUND	TEST SYSTEM	inhibition, %
COc1ccc(Nc2nc(NCc3cccc(NS(C)(=O)=O)c3)cc(-c3ccc(OC)cc3)n2)cc1	L-lactate dehydrogenase (Plasmodium falciparum (isolate CDC / Honduras)) (UniProt Q27743)	5
CC(C)(C)Oc1ccc(CC2NC3(C(=O)N(Cc4ccc(C(C)(C)C)cc4)c4ccccc43)C3C(=O)N(c4ccc(Br)cc4)C(=O)C23)cc1 (centres undefined)	L-lactate dehydrogenase (Plasmodium falciparum (isolate CDC / Honduras)) (UniProt Q27743)	0
COc1ccc2c(NN=Cc3cccc(F)c3)ccnc2c1	L-lactate dehydrogenase (Plasmodium falciparum (isolate CDC / Honduras)) (UniProt Q27743)	-5
Cc1cc(N[C@@H](Cc2ccccc2)C(=O)NCc2cccc(F)c2)nc(NCCc2cccs2)n1	L-lactate dehydrogenase (Plasmodium falciparum (isolate CDC / Honduras)) (UniProt Q27743)	2
O=C(Nc1ccc2ccccc2n1)c1ccccc1-c1ccccc1	L-lactate dehydrogenase (Plasmodium falciparum (isolate CDC / Honduras)) (UniProt Q27743)	0

# inhibition of `C=CCn1c(=N)c(C(=O)NC2CCCCC2)cc2c(=O)n3cccc(C)c3nc21` = 4

# inhibition of `CC(C)COc1ccc(Cl)cc1Cc1ccc(-c2nc3ccc(N4CCN(C)CC4)cc3[nH]2)o1` = 0

# inhibition of `CCOc1cc(C(=O)N[C@@H](Cc2ccccc2)[C@H](O)CNCc2cccc(OC)c2)cc(N2CCCCS2(=O)=O)c1` = 3

# inhibition of `CCCC[C@H](NC(=O)O[C@H](COc1ccc(OCc2ccccc2)cc1)C(C)(C)C)C(=O)C(=O)Nc1ccn[nH]1` = -1

* * *

- METHOD NOTES: antimalarial activity against Dd2 strain (AID 2302);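 further: 0% = DMSO untreated growth and 100% = chloroquine plus artemisinin killed control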
- TEST PARAMETERS: P. falciparum Dd2 in RBCs, LDH growth readout, 72 h; at 2 µM; stronger effect = higher value
Outcome label depends on growth inhibition relative to 30%: at/above gives Y, below gives N.

The examples below pair each entry with its known result.
COMPOUND	CATEGORY
CCCC[C@@H](C(=O)NCCc1ccc(Cl)cc1)N1C(=O)CCC1C(=O)Nc1ccc(Cl)c(Cl)c1 (stereo not given in full)	N
CCc1ccc(C(=O)Nc2cccc(CN3CCCN(Cc4ccc(O)cc4)CC3)c2)cc1	Y
NC1CCN(Cc2cccc(-c3ccc(-c4nc5ccc(F)cc5[nH]4)cc3)c2)C1 (stereo not given)	Y
O=C(Nc1ccccc1)N1CCC(CN2CCOC(c3ccccc3)(c3ccccc3)C2)CC1	Y
O=C(Nc1ccc(F)c(C(F)(F)F)c1)N[C@H]1CCN(CCCCCNC(=O)[C@@H]2C[C@H]2c2ccc(Cl)c(Cl)c2)C1	N
c1cncc(CCNCc2ccc(-c3cccc(-c4nc5ccccc5[nH]4)c3)cc2)c1	Y
CCCCCCN1CCCN(Cc2ccc(C(=O)Nc3ccc(C(C)(C)C)cc3)cc2)CC1	Y
COCCNCc1ccc(-c2ccc(CNc3ccc4ncccc4c3)cc2)cc1	N

Form field: growth inhibition at least 30%? Entry: `O=C(/C=C/c1ccc2ccccc2c1)NCCCCCN1CCC(c2c[nH]c3ccccc23)CC1`
N

Form field: growth inhibition at least 30%? Entry: `COc1ccc(NC(=O)c2ccc(OCCCCCCCOc3ccc(C(=O)Nc4ccc(OC)c(N5CCN(C)CC5)c4)cc3)cc2)cc1N1CCN(C)CC1`
Y

Form field: growth inhibition at least 30%? Entry: `Cc1cc(C)c(C)c(S(=O)(=O)N2CCCCC(c3ccc(F)c(F)c3)=N2)c1C`
Y

Form field: growth inhibition at least 30%? Entry: `COCCNCc1ccc(-c2cccc(CNc3ccc(OC)cc3)c2)cc1`
N

Form field: growth inhibition at least 30%? Entry: `O=C(O)C[C@H](NC(=O)[C@@H]1CCCN1C(=O)c1cccc(-c2ccc(Cl)c(Cl)c2)c1)C(=O)O`
N

Form field: growth inhibition at least 30%? Entry: `CCc1nc(N)nc(N)c1-c1ccc(F)cc1`
N

Form field: growth inhibition at least 30%? Entry: `c1ccn2c(Sc3ncnc4sccc34)ncc2c1`
Y

Form field: growth inhibition at least 30%? Entry: `O=C(/C=C/c1ccc(Cl)c(Cl)c1)NCCCCCN1CCCN(C(=O)Nc2ccc(OC(F)F)cc2)CC1`
N

Form field: growth inhibition at least 30%? Entry: `CC(C)(C)CC(C)(C)c1ccc(O)c(C(=O)Nc2ccc([N+](=O)[O-])cc2)c1`
Y

Form field: growth inhibition at least 30%? Entry: `CCN(CCCN1CCCCC1)c1cc(C)nc(Nc2cc(C)ccc2C)n1`
Y

Form field: growth inhibition at least 30%? Entry: `COc1ccc(-c2cccc(NC(=O)c3cccc(Cl)c3)c2)cc1CN1CCN(C)CC1`
Y

Form field: growth inhibition at least 30%? Entry: `Cc1ccc(C2(CN3CCC(NC(=O)c4ccn[nH]4)CC3)CCCCC2)cc1`
Y
